# Test system: OVCAR-4
# Assay name: NCI tumour cell line growth inhibition, 48 h
Activity calls are given as the source filed them. No stated cut-off is given here; in the data, active = GI50 up to about 1.1 µM and inactive = higher.
Each entry below carries its reported GI50.

Q: Request the reported GI50 associated with "O=C1N[C@@H](c2c[nH]c3cc(Br)ccc23)C(=O)N[C@H]1c1c[nH]c2cc(Br)ccc12"
Ans: > 100 µM (inactive)

Q: // GI50 lookup, key: Nc1nc(SCCC/C=C/I)nc2c1ncn2C1OC(COP(=O)(O)O)C(O)C1O (stereo unspecified)
Ans: > 100 µM (inactive)

Q: Look up GI50 for this molecule: "NC1(CCCCCCCCCCC(=O)O)CNCCNCCNCCNC1"
Ans: 30.9 µM (inactive)

Q: # input molecule: C=C1C(=O)C2=CC1CCC(=O)C1(C)CCC(OC(C)=O)C(C)(C)C1CC2O (stereo unspecified) ; wanted: its GI50
Ans: 2.17 µM (inactive)

Q: Can you look up the measured GI50 of "Cn1c2ccc3cc2c(=S)c2cc(ccc21)OCCOCCOCCOCCOCCO3" for me?
Ans: > 10 µM (inactive)

Then there is this molecule:
Q: Field request: GI50 | item: CCOC(=O)NC(=O)c1cn(C(CC)COC(=O)NCCCCCCNC(=O)OCC(CC)n2cc(C(=O)NC(=O)OCC)c(=O)[nH]c2=O)c(=O)[nH]c1=O (stereo unspecified)
Ans: > 100 µM (inactive)

----------
# Tested on: A498
# Assay name: NCI tumour cell line growth inhibition, 48 h
Activity calls are given as the source filed them. No stated cut-off is given here; in the data, active = GI50 up to about 1.1 µM and inactive = higher.
Readout label: GI50

Q: Give its GI50 value. Item: "CC1(C)O[C@@H](CCl)C[C@H](C#N)O1"
Ans: > 100 µM (inactive)

Continuing:
Q: Look up GI50 for this compound: COc1ccc(NC(C(N)=O)c2cc3cc(Br)ccc3nc2Cl)cc1 (stereo not given)
Ans: > 100 µM (inactive)

Q: // returns reported GI50 for input "CC(C)/C(Cl)=N/OC(=O)Nc1ccc(F)c(Cl)c1"
Ans: 18.2 µM (inactive)

Q: Which value of GI50 has been reported for C/C(=C\C(C[C@](C)(O)C(O)CCC#C[Si](C)(C)C)S(=O)(=O)c1ccccc1)CC/C=C/CO[Si](C)(C)C(C)(C)C (stereo not given in full) in the records?
Ans: 17.5 µM (inactive)

Q: What value of measured GI50 is listed for CON(C)C(=O)C(C)N(Cc1ccccc1)Cc1ccccc1 (stereo not given) ?
Ans: > 100 µM (inactive)

----------
# Tested on: T47D
# Assay name: NCI tumour cell line growth inhibition, 48 h
The source made the active and inactive calls. Cut-off read from the data, not from the text of the source: active = GI50 up to about 1.1 µM and inactive = higher.
Listed here: items and their measured GI50.

Q: Could you share which GI50 value was measured for "O=C1c2ccccc2C(=O)c2oc(Br)cc21" ?
Ans: 1.73 µM (inactive)

Q: Given OC(c1cc(C23CC4CC(CC(C4)C2)C3)nc2c(Cl)cc(Cl)cc12)C1CCCCN1 (centres undefined) , state its recorded GI50.
Ans: 1.79 µM (inactive)

Q: Param item = Cc1cc(NC(=O)NC(=O)c2ccccc2NC(=O)C(C)N)ccc1Oc1ncc(Br)cn1 (centres undefined) ; retrieve measured GI50.
Ans: 15.1 µM (inactive)

Q: Entry C/C=C(\N=C=S)C(=O)OC1C(COC(C)=O)OC([C@]2(O)CC(=O)C(N)=C(C(=O)O)C2=O)C(O)C1OC1CC(OC)C(O)([C@@H](C)OC(=O)[C@@H](C)CC)C(C)O1 (some centres undefined) has what GI50?
Ans: 11.2 µM (inactive)
